// reported inhibition for each item listed
Tested on: Mast/stem cell growth factor receptor Kit (Homo sapiens), P10721 [V560G]
Sequence (P10721 whole entry V560G): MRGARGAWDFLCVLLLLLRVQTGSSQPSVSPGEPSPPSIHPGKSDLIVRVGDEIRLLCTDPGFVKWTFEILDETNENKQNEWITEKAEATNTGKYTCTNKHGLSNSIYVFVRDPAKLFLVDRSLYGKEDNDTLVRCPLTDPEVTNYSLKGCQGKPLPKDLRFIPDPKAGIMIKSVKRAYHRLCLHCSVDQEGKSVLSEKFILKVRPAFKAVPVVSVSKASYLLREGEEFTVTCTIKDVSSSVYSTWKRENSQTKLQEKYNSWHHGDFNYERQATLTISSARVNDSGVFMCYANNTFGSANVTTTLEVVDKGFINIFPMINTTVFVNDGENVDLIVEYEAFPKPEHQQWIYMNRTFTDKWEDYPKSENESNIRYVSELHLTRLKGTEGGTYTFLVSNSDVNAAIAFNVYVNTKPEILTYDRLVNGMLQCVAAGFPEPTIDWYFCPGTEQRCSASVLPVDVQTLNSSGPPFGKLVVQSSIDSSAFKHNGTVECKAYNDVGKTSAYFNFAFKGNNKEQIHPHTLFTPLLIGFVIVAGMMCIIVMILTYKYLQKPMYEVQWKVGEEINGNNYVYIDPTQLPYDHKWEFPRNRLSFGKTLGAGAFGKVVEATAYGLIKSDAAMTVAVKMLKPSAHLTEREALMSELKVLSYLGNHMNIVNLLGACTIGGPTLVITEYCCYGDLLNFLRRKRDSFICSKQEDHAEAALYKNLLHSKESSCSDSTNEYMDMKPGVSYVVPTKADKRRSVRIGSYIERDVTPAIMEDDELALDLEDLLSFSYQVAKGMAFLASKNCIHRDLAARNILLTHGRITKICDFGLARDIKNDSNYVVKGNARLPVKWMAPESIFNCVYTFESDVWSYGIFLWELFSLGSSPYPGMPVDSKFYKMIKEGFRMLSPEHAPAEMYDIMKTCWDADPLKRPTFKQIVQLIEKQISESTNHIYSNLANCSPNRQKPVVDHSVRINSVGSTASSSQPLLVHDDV
Conditions: at 1 µM
Give the number; % is assumed, so skip it.

Answered cases to consult:
- Clc1ccc(CNc2nccc(-c3cnn4ncccc34)n2)cc1: 7.92
- NC(=O)Cc1ccccc1Oc1nccc(-c2c(-c3ccc(F)cc3)ncn2C2CCNCC2)n1: -3.43
- O=C(Nc1ccc(Oc2ccc3[nH]c(NC(=O)c4ccccc4)nc3c2)cc1)Nc1cc(C(F)(F)F)ccc1F: 67
- COc1cc(Nc2ncc3c(C)nc(-c4cccc(Oc5ccccc5)c4)n3n2)cc(OC)c1OC: 1.13
- CN(C)CCOc1ccc(-c2cc(-c3ccc4c(c3)CCC4=NO)c(-c3ccncc3)o2)cc1: 3.34
- COc1cc(C)c(N(C)C(=O)CN(C)C)cc1Nc1nc(Nc2cccc(F)c2C(N)=O)c2cc[nH]c2n1: -3.38

Value (inhibition, Mast/stem cell growth factor receptor Kit (Homo sapiens), P10721 [V560G]) for record NS(=O)(=O)c1ccc(N/N=C2\C(=O)Nc3ccc(-c4cnco4)cc32)cc1 = 3.19

Value (inhibition, Mast/stem cell growth factor receptor Kit (Homo sapiens), P10721 [V560G]) for record O=C(Nc1n[nH]c2cc(-c3cc(F)ccc3F)ccc12)C1CC1 = 1.15

====

Biological target: Phosphatidylinositol 4,5-bisphosphate 3-kinase catalytic subunit delta isoform (Homo sapiens) (UniProt O00329);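 further: values are mean percent inhibition of PI3K-delta, part of the GSK PKIS screen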
Sequence (O00329 whole entry, canonical isoform): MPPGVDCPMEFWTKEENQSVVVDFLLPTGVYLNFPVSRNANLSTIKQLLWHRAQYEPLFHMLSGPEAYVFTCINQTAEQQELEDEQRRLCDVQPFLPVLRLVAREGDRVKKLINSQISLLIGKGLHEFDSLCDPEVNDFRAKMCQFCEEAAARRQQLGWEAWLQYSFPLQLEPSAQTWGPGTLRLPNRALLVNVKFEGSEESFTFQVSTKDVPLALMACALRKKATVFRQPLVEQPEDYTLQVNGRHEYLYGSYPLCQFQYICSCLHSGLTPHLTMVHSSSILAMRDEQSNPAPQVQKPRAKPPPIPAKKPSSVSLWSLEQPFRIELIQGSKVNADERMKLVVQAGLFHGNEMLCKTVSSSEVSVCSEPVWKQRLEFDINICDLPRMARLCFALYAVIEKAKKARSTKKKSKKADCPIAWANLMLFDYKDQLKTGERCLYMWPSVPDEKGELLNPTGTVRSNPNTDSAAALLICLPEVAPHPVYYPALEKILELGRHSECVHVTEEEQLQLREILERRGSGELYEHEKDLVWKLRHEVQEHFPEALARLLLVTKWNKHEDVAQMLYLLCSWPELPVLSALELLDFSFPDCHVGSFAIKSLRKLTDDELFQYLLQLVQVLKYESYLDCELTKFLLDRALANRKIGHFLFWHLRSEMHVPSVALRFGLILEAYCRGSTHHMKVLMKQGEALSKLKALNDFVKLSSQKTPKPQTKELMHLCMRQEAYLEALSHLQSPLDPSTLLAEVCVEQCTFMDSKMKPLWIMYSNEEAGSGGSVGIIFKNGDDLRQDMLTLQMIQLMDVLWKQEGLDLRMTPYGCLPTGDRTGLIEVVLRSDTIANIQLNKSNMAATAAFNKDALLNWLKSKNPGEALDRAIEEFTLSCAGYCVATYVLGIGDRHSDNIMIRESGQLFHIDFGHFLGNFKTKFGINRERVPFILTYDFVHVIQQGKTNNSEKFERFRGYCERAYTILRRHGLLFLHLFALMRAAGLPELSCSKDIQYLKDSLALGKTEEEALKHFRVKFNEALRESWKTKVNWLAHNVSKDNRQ
Settings: at 0.1 µM
// reported inhibition for each item listed
Give the number; % is assumed, so skip it.

Answered cases to consult:
- O=C(Nc1n[nH]c2cc(-c3cc(F)ccc3F)ccc12)C1CC1: 2.22
- Fc1ccc(-c2c(-c3ccncc3)nc3n2CCS3)cc1: 2.37
- COc1ccc(C2=C(N3CCc4ccccc43)C(=O)NC2=O)cc1: 5.26

Record Fc1ccc(-c2ncn(C3CCNCC3)c2-c2ccnc(Oc3ccc(F)c(F)c3)n2)cc1 , field inhibition: 1.7

Record Nc1nccc(-c2c(-c3ccc(F)cc3)ncn2C2CCC(O)CC2)n1 (stereo unspecified) , field inhibition: 3.72

Record O=C(NCC1CC1)c1ccc(-c2cccc(C(=O)NC3CC3)c2)cc1 , field inhibition: 1.94

Record Cc1nnc(-c2ccc(C)c(-c3ccc(C(=O)NCc4ccc(Cl)cc4)cc3)c2)o1 , field inhibition: 2.02

Record O=C1Nc2ccccc2/C1=C/Nc1ccc(-n2cncn2)cc1 , field inhibition: 1.81

Record O=C(Nc1ccc(Oc2ccc3[nH]c(NC(=O)c4ccccc4)nc3c2)cc1)Nc1cc(C(F)(F)F)ccc1F , field inhibition: -0.81

Record CNC(=O)c1cncc(/C=C/c2c(C)cccc2C)c1 , field inhibition: -1.64

====

// reported inhibition for each item listed
Target: Tyrosine-protein kinase ZAP-70 (Homo sapiens)
Sequence (whole entry): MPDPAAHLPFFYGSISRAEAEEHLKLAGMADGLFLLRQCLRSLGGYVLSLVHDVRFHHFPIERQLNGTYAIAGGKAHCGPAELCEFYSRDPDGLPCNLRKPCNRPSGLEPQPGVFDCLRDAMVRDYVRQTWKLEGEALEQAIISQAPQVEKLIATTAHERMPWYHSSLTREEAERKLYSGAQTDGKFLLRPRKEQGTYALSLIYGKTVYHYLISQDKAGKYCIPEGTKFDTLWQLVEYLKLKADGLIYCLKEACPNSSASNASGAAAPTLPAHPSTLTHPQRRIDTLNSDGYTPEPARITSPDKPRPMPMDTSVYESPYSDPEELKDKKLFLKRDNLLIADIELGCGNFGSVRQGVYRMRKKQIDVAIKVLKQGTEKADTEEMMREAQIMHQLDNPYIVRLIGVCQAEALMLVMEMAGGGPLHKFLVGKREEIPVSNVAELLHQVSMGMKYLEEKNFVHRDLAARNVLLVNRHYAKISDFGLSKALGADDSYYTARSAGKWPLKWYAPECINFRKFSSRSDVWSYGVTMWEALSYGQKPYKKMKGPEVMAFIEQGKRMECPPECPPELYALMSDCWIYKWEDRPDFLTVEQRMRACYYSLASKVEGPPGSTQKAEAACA
Details: at 1 µM
Description: GSK_PKIS: ZAP70 mean inhibition at 1 uM [Nanosyn]
Give the number; % is assumed, so skip it.

Answered cases to consult:
• Fc1ccc(-c2nc3n(c2-c2ccncc2)CCS3)cc1 = -1.24
• CCC(=O)Nc1ccc(C)c(-c2ccc(C(=O)NCC3CC3)cc2)c1 = 1.46
• CS(=O)(=O)CCNCc1cc(-c2cc3c(Nc4ccc(OCc5cccc(F)c5)c(Cl)c4)ncnc3s2)cs1 = 1.06
• O=C1NC(=O)C(c2cccc(Cl)c2)=C1Nc1ccc(Cl)c(C(=O)O)c1 = 2.76
• COc1ccc(C2=C(N3CCc4ccccc43)C(=O)NC2=O)cc1 = -0.45

Record CN(c1ccc(NC(=O)Nc2c(Cl)cccc2Cl)cc1)c1ccnc(Nc2cccc(CS(C)(=O)=O)c2)n1 , field inhibition: 9.82

Record NS(=O)(=O)c1ccc(N/N=C2\C(=O)Nc3ccc(-c4cnco4)cc32)cc1 , field inhibition: 2.47

Record O=C1Nc2ccc(I)cc2C1=Cc1cc(Br)c(O)c(Br)c1 , field inhibition: 5.52

Record Cc1ccc(C(=O)NC(C)C)cc1-c1ccc(C(=O)NCC2CC2)cc1 , field inhibition: -1.41

Record NC(=O)Cc1ccccc1Oc1nccc(-c2c(-c3ccc(F)cc3)ncn2C2CCNCC2)n1 , field inhibition: -4.81

====

Target: RAF proto-oncogene serine/threonine-protein kinase (Homo sapiens);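 further: values are mean CRAF kinase inhibition from profiling of the GSK Published Kinase Inhibitor Set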
Conditions: at 0.1 µM
// reported inhibition for each item listed
Give the number; % is assumed, so skip it.

- CCc1cccc(CC)c1/C=C/c1cncc(C(=O)NC)c1: 5.4
- CCS(=O)(=O)c1ccc(OC)c(Nc2ncc(-c3cccc(-c4ccccc4F)c3)o2)c1: -0.07

Record CCc1nccc2c1nc(-c1nonc1N)n2CC , field inhibition: -4.45

Record O=C(Nc1ccc(Oc2ccc3[nH]c(NC(=O)c4ccccc4)nc3c2)cc1)Nc1cc(C(F)(F)F)ccc1F , field inhibition: -3.16

Record CN(C)CCOc1ccc(-c2cc(-c3ccc4c(c3)CCC4=NO)c(-c3ccncc3)o2)cc1 , field inhibition: -4.4

Record CCC(=O)Nc1ccc(C)c(-c2ccc(C(=O)NCC3CC3)cc2)c1 , field inhibition: 2.89

Record N#Cc1ccc(Oc2nccc(-c3c(-c4ccc(F)cc4)ncn3C3CCNCC3)n2)cc1 , field inhibition: -1.66

====

Target: Serine/threonine-protein kinase BRSK1 (Homo sapiens);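 further: each value is a mean percent inhibition of BRSK1 kinase activity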
Sequence (whole entry): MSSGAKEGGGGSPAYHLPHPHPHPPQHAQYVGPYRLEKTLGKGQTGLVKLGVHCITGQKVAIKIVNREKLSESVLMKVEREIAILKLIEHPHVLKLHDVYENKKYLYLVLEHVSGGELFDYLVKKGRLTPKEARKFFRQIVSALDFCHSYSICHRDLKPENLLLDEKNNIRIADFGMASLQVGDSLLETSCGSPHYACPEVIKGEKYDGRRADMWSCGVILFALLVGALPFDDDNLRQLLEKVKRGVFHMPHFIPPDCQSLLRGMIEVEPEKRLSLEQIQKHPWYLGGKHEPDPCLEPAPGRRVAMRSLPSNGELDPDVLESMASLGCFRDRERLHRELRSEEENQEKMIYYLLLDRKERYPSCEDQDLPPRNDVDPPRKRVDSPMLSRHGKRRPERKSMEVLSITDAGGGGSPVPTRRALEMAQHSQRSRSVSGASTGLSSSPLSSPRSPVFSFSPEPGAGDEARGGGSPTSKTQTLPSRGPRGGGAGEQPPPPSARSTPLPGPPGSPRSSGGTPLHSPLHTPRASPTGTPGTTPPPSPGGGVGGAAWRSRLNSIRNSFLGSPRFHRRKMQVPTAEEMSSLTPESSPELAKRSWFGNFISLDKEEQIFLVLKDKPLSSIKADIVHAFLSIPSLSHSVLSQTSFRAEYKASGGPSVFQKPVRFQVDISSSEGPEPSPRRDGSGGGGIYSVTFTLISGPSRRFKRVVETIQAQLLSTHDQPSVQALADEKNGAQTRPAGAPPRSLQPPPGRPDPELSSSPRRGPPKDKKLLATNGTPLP
Conditions: at 1 µM
measured_property: inhibition (%)
Give the number; % is assumed, so skip it.

- CS(=O)(=O)CCNCc1ccc(-c2ccc3ncnc(Nc4ccc(OCc5ccccc5)c(Br)c4)c3c2)o1: 2.21
- Fc1ccc(-c2ncn(C3CCNCC3)c2-c2ccnc(Oc3ccc(F)c(F)c3)n2)cc1: 3.93

Turning now to a further compound:
Value (inhibition, Serine/threonine-protein kinase BRSK1 (Homo sapiens)) for record O=C(NCC1CC1)c1ccc(-c2cccc(C(=O)NC3CC3)c2)cc1 = 0.89

====

// reported inhibition for each item listed
Tested on: Mast/stem cell growth factor receptor Kit (Homo sapiens), P10721 [D816V]
Sequence (P10721 whole entry D816V): as the sequence (P10721 whole entry V560G) above, with G560V, D816V counted along it
Settings: at 1 µM
Give the number; % is assumed, so skip it.

Record COc1cc(Nc2ncc(-c3ccccc3)o2)cc(OC)c1OC , field inhibition: 0.05

====

Target: Phosphorylase b kinase gamma catalytic chain, liver/testis isoform (Homo sapiens) (UniProt P15735);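 further: values are mean inhibition of PHKG2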
Sequence (P15735 whole entry, canonical isoform): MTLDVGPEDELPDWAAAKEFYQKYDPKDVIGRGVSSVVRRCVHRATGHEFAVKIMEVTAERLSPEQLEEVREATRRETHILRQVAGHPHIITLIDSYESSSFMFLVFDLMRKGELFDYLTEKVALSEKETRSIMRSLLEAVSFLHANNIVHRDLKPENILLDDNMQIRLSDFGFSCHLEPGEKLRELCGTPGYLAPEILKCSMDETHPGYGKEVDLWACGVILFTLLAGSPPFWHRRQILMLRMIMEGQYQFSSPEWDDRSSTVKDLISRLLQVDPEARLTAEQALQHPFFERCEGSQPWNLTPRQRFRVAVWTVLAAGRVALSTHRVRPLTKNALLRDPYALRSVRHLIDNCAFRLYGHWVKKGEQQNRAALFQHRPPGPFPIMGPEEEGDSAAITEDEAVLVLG
Conditions: at 0.1 µM
measured_property: inhibition (%)
Give the number; % is assumed, so skip it.

Answered cases to consult:
* Nc1nccc(-c2c(-c3ccc(F)cc3)ncn2C2CCC(O)CC2)n1 (stereo not given) | -4.04
* CN1CCN(CCCNc2nc3ccc(Oc4ccc(NC(=O)Nc5cc(C(F)(F)F)ccc5F)cc4)cc3[nH]2)CC1 | 2.23
* COc1ccc(C2=C(N3CCc4ccccc43)C(=O)NC2=O)cc1 | 7.25

Turning now to a further compound:
Record O=C(Nc1n[nH]c2cc(-c3ccccc3)ccc12)C1CC1 , field inhibition: 5.27
